These data points were gathered from PubChem BioAssay AID463074.

AC50 reference
system: HMLE_sh_eGFP viability, CellTiter-Glo luminescence, 72 h; experiment: cytotoxicity in HMLE control line with eGFP shRNA, dose response, counter-screen for HMLE_sh_ECad selective toxicity project, cell-based, HMLE_sh_eGFP, luminescence (AID 463074);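 note: counterscreen control line to flag general toxicity for the HMLE_sh_ECad screen; potency for loss of viability as luminescence drops below DMSO wells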

compound=COc1cccc(Nc2nc(-c3cccs3)nc3ccccc23)c1 target_of_assay="HMLE_sh_eGFP viability, CellTiter-Glo luminescence, 72 h" reported_metric=AC50 observed_measurement="7.32 µM"
compound=O=C(COCc1cc(-c2ccc3c(c2)OCO3)on1)N1CCN(c2cccc(C(F)(F)F)c2)CC1 target_of_assay="HMLE_sh_eGFP viability, CellTiter-Glo luminescence, 72 h" reported_metric=AC50 observed_measurement="2.69 µM"
compound=Cc1nc(SCc2nc3ccc(C(F)(F)F)cc3[nH]2)c2oc3ccccc3c2n1 target_of_assay="HMLE_sh_eGFP viability, CellTiter-Glo luminescence, 72 h" reported_metric=AC50 observed_measurement="5.23 µM"
compound=COc1cc(/C=N/O)cc(Br)c1OCc1cccc(Cl)c1 target_of_assay="HMLE_sh_eGFP viability, CellTiter-Glo luminescence, 72 h" reported_metric=AC50 observed_measurement="6.68 µM"
compound=CCCCc1ccc(NC(=O)CSc2nc(=O)n(CCN(CC)CC)c3c2CCC3)cc1 target_of_assay="HMLE_sh_eGFP viability, CellTiter-Glo luminescence, 72 h" reported_metric=AC50 observed_measurement="9.97 µM"

### Prompt Give the reported AC50 for this compound. CCOC(=O)c1cnc(-n2nc(C)cc2C)nc1NNc1cc(C)nc(-c2ccccc2)n1
### Response 2.97 µM
